- subjectOfTest: F508delCFTR (Homo sapiens, UniProt P13569, DEL508-508)
- Construct: expressed in transfected cells; host or cells: CFBE41o- human lung-derived epithelial cells (CFBE4lo-F508delCFTR-HRP), doxycycline-inducible
- Sequence (P13569 with tags, fused parts or gaps DEL508-508): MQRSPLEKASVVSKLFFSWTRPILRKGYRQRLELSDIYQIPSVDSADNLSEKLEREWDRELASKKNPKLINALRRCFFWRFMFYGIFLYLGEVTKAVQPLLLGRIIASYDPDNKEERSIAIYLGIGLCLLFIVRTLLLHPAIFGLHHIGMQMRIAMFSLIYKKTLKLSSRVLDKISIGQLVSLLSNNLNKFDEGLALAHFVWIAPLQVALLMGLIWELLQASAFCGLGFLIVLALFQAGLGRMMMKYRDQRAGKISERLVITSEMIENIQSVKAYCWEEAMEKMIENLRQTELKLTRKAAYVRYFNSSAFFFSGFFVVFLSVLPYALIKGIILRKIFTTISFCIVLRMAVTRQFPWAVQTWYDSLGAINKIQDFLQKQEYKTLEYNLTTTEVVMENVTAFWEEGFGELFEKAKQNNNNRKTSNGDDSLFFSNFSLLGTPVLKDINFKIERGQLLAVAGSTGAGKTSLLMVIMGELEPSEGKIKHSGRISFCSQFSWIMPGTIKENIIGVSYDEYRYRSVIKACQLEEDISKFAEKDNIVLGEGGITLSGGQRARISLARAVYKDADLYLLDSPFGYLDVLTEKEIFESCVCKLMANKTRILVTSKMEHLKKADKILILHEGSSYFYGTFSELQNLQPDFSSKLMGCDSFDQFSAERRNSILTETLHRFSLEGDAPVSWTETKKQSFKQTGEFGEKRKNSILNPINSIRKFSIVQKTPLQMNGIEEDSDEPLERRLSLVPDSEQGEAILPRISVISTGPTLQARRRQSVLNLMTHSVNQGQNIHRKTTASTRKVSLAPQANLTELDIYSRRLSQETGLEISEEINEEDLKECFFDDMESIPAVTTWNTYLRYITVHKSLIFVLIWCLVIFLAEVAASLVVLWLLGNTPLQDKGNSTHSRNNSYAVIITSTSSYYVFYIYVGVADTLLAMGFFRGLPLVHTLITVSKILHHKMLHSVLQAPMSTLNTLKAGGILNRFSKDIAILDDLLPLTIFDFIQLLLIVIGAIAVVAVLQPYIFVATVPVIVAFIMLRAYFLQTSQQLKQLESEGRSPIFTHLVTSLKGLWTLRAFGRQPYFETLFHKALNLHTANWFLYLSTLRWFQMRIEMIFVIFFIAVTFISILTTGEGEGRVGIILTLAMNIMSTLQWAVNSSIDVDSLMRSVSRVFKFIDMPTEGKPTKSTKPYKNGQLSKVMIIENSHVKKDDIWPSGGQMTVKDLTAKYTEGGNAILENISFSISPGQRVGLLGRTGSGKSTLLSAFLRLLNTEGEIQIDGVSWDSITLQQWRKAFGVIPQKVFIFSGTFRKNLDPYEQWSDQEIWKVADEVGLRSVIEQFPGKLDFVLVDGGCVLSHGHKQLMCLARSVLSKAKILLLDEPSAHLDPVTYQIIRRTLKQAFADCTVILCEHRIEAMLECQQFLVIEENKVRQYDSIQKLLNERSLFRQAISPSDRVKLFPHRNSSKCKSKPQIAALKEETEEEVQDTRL
- testProtocol: Cell Surface Expression-Horse Radish Peroxidase (CSE-HRP) Assay
- Format: cell-based
- testConditions: test compound without co-corrector; read-out: EC50 (without co-corrector)
quantityKind: EC50

compound	subjectOfTest	EC50
COc1ccc(C(F)(F)F)cc1CN[C@H]1[C@H](C(C)(C)C)[C@@H](C(=O)O)N(C(=O)[C@@H]2CCC[C@@H](OC)C2)[C@H]1c1ccccc1	F508delCFTR (Homo sapiens, UniProt P13569, DEL508-508)	1 to 10 µM
COc1cc(C(F)(F)F)ccc1CN[C@H]1[C@H](C(C)(C)C)[C@@H](C(=O)O)N(C(=O)C2CCCC(F)(F)C2)[C@H]1c1ccccc1 (stereo partly drawn)	F508delCFTR (Homo sapiens, UniProt P13569, DEL508-508)	1 to 10 µM
COc1ccc(-c2ccnnc2)cc1CN[C@H]1[C@H](C(C)(C)C)[C@@H](C(=O)O)N(C(=O)C2CCCCC2)[C@H]1c1ccccc1	F508delCFTR (Homo sapiens, UniProt P13569, DEL508-508)	> 10 µM
COc1nc(C(C)(C)C)ccc1CN[C@H]1[C@H](C(C)(C)C)[C@@H](C(=O)O)N(C(=O)C2CCCCC2)[C@H]1c1ccccc1	F508delCFTR (Homo sapiens, UniProt P13569, DEL508-508)	< 1 µM
COc1ncc(Cl)cc1CN[C@@H]1[C@@H](C(C)(C)C)[C@H](C(=O)O)N(C(=O)C2CCCCC2)[C@@H]1c1ccccc1 (racemic)	F508delCFTR (Homo sapiens, UniProt P13569, DEL508-508)	1 to 10 µM

Enquiry: Let me know recorded EC50 for `COc1cc2c(cc1CN[C@H]1[C@H](C(C)(C)C)[C@@H](C(=O)O)N(C(=O)C3CCCCC3)[C@H]1c1ccccc1)CCC2` , thanks.
Return: 1 to 10 µM

Enquiry: Let me know recorded EC50 for COc1ccc(C(C)(C)C)cc1CN[C@H]1[C@H](C(C)(C)C)[C@@H](C(=O)O)N(C(=O)C2CCC(C)CC2)[C@H]1c1ccccc1 (stereo partly drawn) , thanks.
Return: < 1 µM

Enquiry: Let me know recorded EC50 for COc1cc(-c2ccccc2)ccc1CN[C@@H]1[C@@H](C(C)(C)C)[C@H](C(=O)O)N(C(=O)OC(C)C)[C@@H]1c1ccccc1 (racemic) , thanks.
Return: > 10 µM

Enquiry: Let me know recorded EC50 for COc1cccc([C@@H]2[C@H](NCc3ccc(Cl)cc3OC)[C@@H](C(C)(C)C)[C@H](C(=O)O)N2C(=O)C2CCCCC2)n1 (racemic) , thanks.
Return: 1 to 10 µM

Enquiry: Let me know recorded EC50 for `CC(C)(C)NC(=O)c1cncc(N[C@H]2[C@H](C(C)(C)C)[C@@H](C(=O)O)N(C(=O)C3CCCCC3)[C@H]2c2ccccc2)c1` , thanks.
Return: > 10 µM

Enquiry: Let me know recorded EC50 for `COc1ccc(-c2cnn(C3CC3)c2)cc1CN[C@H]1[C@H](C(C)(C)C)[C@@H](C(=O)O)N(C(=O)C2CCCCC2)[C@H]1c1ccccc1` , thanks.
Return: 1 to 10 µM

Enquiry: Let me know recorded EC50 for `COc1ncc(C(F)(F)F)cc1CN[C@H]1[C@H](C(C)(C)C)[C@@H](C(=O)O)N(C(=O)[C@@H]2CCCO2)[C@H]1c1cccnc1N(C)C` , thanks.
Return: 1 to 10 µM

Enquiry: Let me know recorded EC50 for `COc1ncc(N2CCCC2)cc1CN[C@H]1[C@H](C(C)(C)C)[C@@H](C(=O)O)N(C(=O)OC(C)C)[C@H]1c1cccnc1N(C)C` , thanks.
Return: 1 to 10 µM

Enquiry: Let me know recorded EC50 for `CC(C)(C)[C@H]1[C@H](NCc2ccc3c(c2)OCCO3)[C@H](c2ccccc2)N(C(=O)C2CCCCC2)[C@@H]1C(=O)O` , thanks.
Return: > 10 µM

Enquiry: Let me know recorded EC50 for `CCC(CC)Cc1cnc(OC)c(CN[C@H]2[C@H](C(C)(C)C)[C@@H](C(=O)O)N(C(=O)C3CCCCC3)[C@H]2c2ccccc2)c1` , thanks.
Return: < 1 µM

Enquiry: Let me know recorded EC50 for COc1ccc(C(C)(C)C)cc1CN[C@H]1[C@H](C(C)(C)C)[C@@H](C(=O)O)N(C(=O)C2Cc3ccccc3O2)[C@H]1c1cccnc1OC (single isomer, unassigned) [Example I-166] , thanks.
Return: 1 to 10 µM

Enquiry: Let me know recorded EC50 for `COc1ccc(C(F)(F)F)cc1CN[C@H]1[C@H](C(C)(C)C)[C@@H](C(=O)O)N(C(=O)[C@](OC)(c2ccccc2)C(F)(F)F)[C@H]1c1ccccc1` , thanks.
Return: > 10 µM

Enquiry: Let me know recorded EC50 for COc1ccc(C(C)(C)C)cc1CN[C@H]1[C@H](C(C)(C)C)[C@@H](C(=O)O)N(C(=O)C2CCCCC2C)[C@H]1c1cccnc1N(C)C (stereo partly drawn) , thanks.
Return: 1 to 10 µM

Enquiry: Let me know recorded EC50 for CC(C)(C)[C@@H]1[C@@H](NCc2cc(C(F)(F)F)ccc2OCCO)[C@@H](c2ccccc2)N(C(=O)C2CCCCC2)[C@H]1C(=O)O (racemic) , thanks.
Return: > 10 µM

Enquiry: Let me know recorded EC50 for COc1ncc(C(F)(F)F)cc1N[C@H]1[C@H](C(C)(C)C)[C@@H](C(=O)O)N(C(=O)C2CCCC(F)(F)C2)[C@H]1c1cccnc1N(C)C (stereo partly drawn) , thanks.
Return: 1 to 10 µM

Enquiry: Let me know recorded EC50 for `COc1ccc(-c2sc(C)nc2C)cc1CN[C@H]1[C@H](C(C)(C)C)[C@@H](C(=O)O)N(C(=O)C2CCCCC2)[C@H]1c1ccccc1` , thanks.
Return: 1 to 10 µM

Enquiry: Let me know recorded EC50 for COc1cc(C(F)(F)F)ccc1CN[C@H]1[C@H](C(C)(C)C)[C@@H](C(=O)O)N(C(=O)C2C3CCCC32)[C@H]1c1ccccc1 (stereo partly drawn) , thanks.
Return: 1 to 10 µM

Enquiry: Let me know recorded EC50 for `COc1ncc(C2CC2)cc1CN[C@H]1[C@H](C(C)(C)C)[C@@H](C(=O)O)N(C(=O)C2CCCCC2)[C@H]1c1ccccc1C` , thanks.
Return: 1 to 10 µM

Enquiry: Let me know recorded EC50 for COc1ccc(C(C)(C)C)cc1CN[C@H]1[C@H](C(C)(C)C)[C@@H](C(=O)O)N(C(=O)C2CCO2)[C@H]1c1ccccc1 (stereo partly drawn) , thanks.
Return: 1 to 10 µM
